src = patent US9656978B2

Study Target: purified recombinant human TG2 (tissue transglutaminase) (Homo sapiens, UniProt P21980)
Sequence (P21980 whole entry): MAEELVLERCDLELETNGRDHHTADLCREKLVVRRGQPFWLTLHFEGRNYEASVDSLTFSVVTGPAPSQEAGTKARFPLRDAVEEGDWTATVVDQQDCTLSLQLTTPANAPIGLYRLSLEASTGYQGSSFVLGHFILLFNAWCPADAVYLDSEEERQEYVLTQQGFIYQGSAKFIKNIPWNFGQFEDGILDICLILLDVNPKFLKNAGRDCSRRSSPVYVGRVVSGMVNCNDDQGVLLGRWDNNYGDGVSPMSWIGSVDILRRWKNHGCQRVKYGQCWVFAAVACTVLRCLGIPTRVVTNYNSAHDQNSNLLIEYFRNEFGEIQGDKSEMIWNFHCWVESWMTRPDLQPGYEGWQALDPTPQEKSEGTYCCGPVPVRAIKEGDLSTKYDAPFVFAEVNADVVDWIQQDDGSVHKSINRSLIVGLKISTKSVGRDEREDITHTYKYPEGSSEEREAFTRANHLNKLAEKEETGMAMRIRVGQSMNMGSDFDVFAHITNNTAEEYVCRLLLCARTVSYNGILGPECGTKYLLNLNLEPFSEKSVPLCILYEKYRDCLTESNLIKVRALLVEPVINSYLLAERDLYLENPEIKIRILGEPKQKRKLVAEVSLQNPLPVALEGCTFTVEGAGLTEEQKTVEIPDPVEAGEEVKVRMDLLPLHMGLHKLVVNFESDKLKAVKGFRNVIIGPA
Experiment Description: TG2 transamidation activity, biotin X-cadaverine incorporation into N,N′-dimethylcasein (Example 2)
Assay Conditions: recombinant human TG2 400 ng/ml, 2 h at 37° C.
pIC50: −log10 of the molar value.
Property: pIC50

Some molecules with recorded pIC50:
- O=C(CBr)NCC(=O)N1CCN(C(=O)OCC23CC4CC(CC(C4)C2)C3)CC1: > 6.00
- C[S+](C)CC(=O)N[C@@H](Cc1ccccc1)C(=O)N1CCN(C(=O)OCc2ccccc2)CC1: < 4.00
- C[S+](C)CC(=O)N[C@H](Cc1ccccc1)C(=O)N1CCN(C(=O)OCc2ccccc2)CC1: < 4.00

Shift focus to the following entry.
Entry under test: C=CC(=O)N[C@H](Cc1ccccc1)C(=O)N1CCN(C(=O)OCc2ccccc2)CC1 . Its pIC50 was < 4.00
